Below, each entry is listed with its recorded Absorbance at 450 nM.
- ASSAYED TARGET: T1, CD11b A-domain CD11bA-D242A/F275S/F302G, construct BZ348014 (human, UniProt P11215 148-337)
- T1 construct: the antigen on which the libraries were enriched; also called BZ348014 antigen
- T1 chain: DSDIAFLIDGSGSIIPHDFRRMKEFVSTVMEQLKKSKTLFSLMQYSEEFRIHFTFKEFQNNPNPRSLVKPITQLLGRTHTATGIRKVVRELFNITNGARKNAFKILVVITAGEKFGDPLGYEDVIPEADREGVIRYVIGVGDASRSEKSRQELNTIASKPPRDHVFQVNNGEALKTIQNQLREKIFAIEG
- METHOD NOTES: phage ELISA, phage diluted 1:5 on coated antigen (~5 ug/ml), anti-M13-HRP

[
  {
    "BINDER": "Clone 13 149-014-13 VH only (other) VH: EVQLLESGGGLVQPGGSLRLSCAASGFTFSSDLMSWVRQAPGKGLEWVSAISGSGGSTYYADSVKGRFTISRDNSKNTLYLQMNSLRAEDTAVYYCAKNEVIFDYWGQGTLVTVSSASTKGLSMFDYWGQGTKVEIK",
    "Absorbance at 450 nM": 0.499
  },
  {
    "BINDER": "Clone 5 149-014-5 (VL-Linker-VH) (scFv, From the naive human scFv phage display library) scFv: SSELTQDPAVSVALGQTVRITCQGDSLRSYYASWYQQKPGQAPVLVIYGKNNRPSGIPDRFSGSTSGNFASLTITGAQAEDGADYYCHSRDSSGNHLVFGGGTKLTVLGEGKSSGSGSESKASEVQLVQSGAEVKKPGESLKISCKGSGYSFTSYWIGWVRQMPGKGLEWMGIIYPGDSDTRYSPSFQGQVTISADKSISTAYLQWSSLKASDTAMYYCARRARGAFDIWGQGTLVTVSS",
    "Absorbance at 450 nM": 1.37
  },
  {
    "BINDER": "Clone 14 149-014-14 (VK-Linker-VH) (scFv, From the naive human scFv phage display library) scFv: DVVMTQSPLSLPATLGQPASISCRSSQSLVYTDGNTYLNWFQQRPGQSPRRLIYKVSNRDSGVPDRFSGSGSGTHFTLKISRVEAEDVGVYYCMQGTHWPPTFGQGTKVEIKEGKSSGSGSESKASEVQLVQSGAEVKKPGASVKVSCKASGGTFSSYAISWVRQAPGQGLEWMGGIIPIFGTANYAQKFQGRVTITADESTSTAYMELSSLRSEDTAVYYCASSGVDYWGQGTLVTVSS",
    "Absorbance at 450 nM": 0.598
  },
  {
    "BINDER": "Clone 6 149-014-6 (VL-linker-VH) (scFv, From the naive human scFv phage display library) scFv: QSVLTQPPSASGTPGQRVTISCSGSSSNIGSNYVSWYQQLPGTAPKLLIYDNNKRPSGIPDRFSGSKSGTSATLGITGLQTGDEADYYCGTWDSSLSALYVFGAGTKLTVLGEGKSSGSGSESKASQVQLQESGPGLVKPSETLSLTCSVSGGSTSSYYWSWIRQPPGKGLEWIGYISNSGSTNYNPSLKSRVTMSIDTSNNQFSLKLSSVTAADTAVYYCASHLGATWRWGQGTLVTVSS",
    "Absorbance at 450 nM": 0.641
  }
]
